All figures here come from paper PMC8809517.

Molecular target: T1, GFP-9S library array, motif 4 ND N98P;D124E (synthetic construct, N98P;D124E)
T1 chain: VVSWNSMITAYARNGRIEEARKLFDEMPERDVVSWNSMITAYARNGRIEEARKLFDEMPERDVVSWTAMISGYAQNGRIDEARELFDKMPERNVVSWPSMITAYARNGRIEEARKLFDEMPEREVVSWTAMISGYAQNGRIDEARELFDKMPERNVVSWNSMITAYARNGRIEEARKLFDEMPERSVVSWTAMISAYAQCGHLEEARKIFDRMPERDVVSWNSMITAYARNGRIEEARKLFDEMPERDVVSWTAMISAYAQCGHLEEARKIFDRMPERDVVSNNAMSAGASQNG
Assay: high-throughput RNA pulldown from lysate on Ni-NTA beads; HRP: 50 mM Tris pH 8, 150 mM NaCl, 1 mM beta-mercaptoethanol, 50 ug/ml BSA, 3 ug/ml yeast RNA, 0.5% heparin; ITC and FP: Tris pH 8, 200 mM KCl, 5% glycerol; MST: 50 mM Tris pH 8, 200 mM NaCl, 1 mM DTT, BSA, heparin, 0.05% Tween 20
Conditions: tags: N-terminal His-eGFP; label: 5' IRDye 800CW
The reader will find reported Kd values listed item by item below.
measure_name: Kd (nM)

* AUUAUACGUGA (ssRNA) [IR-rpoA-U] | 309
* AUUAAACGUGA (ssRNA) [IR-rpoA-A] | 386
